experiment.summary: Kinetic Constant of Ac-WVAD-AMC for compound
Format: ADME
Peptide text beside a SMILES is read from it. * marks the point of attachment. AMC = Cc1cc(=O)oc2cc(N*)ccc12
quantity.name: Km (µM)
Give your result in µM as a bare value.

// fetch Km given entry CC(=O)NCC(=O)NCC(=O)N[C@@H](C)C(=O)N[C@@H](CC(=O)O)C(=O)Nc1ccc2c(C)cc(=O)oc2c1 (Ac-GGAD-{AMC})
27
